Below is a list of entries, each paired with its recorded melting point value.

Reference set, count: 2
CCc1nccn1Cc1cn(-c2cccc(Cl)c2)cn1.Cl.Cl ... > 200 °C (dec.)
CNc1nccn1Cc1ncn(-c2ccc(Cl)c(Cl)c2)c1CO.Cl ... > 180 °C (dec.)

# next compound below
melting point in this record for `CCc1nccn1Cc1cn(-c2ccc(C)c(C)c2)cn1.Cl.Cl` : > 250 °C

----------
// values below are reported melting point

Below: 3 compounds and their reported melting point.
Cc1nccn1Cc1cn(-c2ccc(SC(F)(F)F)c(Cl)c2)cn1.Cl.Cl ... 195 to 198 °C
Cc1cnc(C)n1Cc1cn(-c2ccc(Cl)c(Cl)c2)cn1.Cl.Cl ... > 250 °C
Cc1ccc(-n2cnc(Cn3ccnc3C)c2)cc1C(F)(F)F.Cl.Cl [Example 39] ... > 235 °C (dec.)

According to the records, this compound `CCc1nccn1Cc1cn(-c2ccc(F)c(C)c2)cn1.Cl.Cl` displays melting point of 210 to 212 °C

Summary for this compound, `CCc1nccn1Cc1cn(-c2ccc(C(C)C)c(C)c2)cn1.Cl.Cl` : melting point is > 180 °C (dec.)
